Each entry below carries its reported EC50.
- Target Or Test System: human GPR119 (hGPR119) (Homo sapiens)
- Sequence (Q8TDV5 whole entry): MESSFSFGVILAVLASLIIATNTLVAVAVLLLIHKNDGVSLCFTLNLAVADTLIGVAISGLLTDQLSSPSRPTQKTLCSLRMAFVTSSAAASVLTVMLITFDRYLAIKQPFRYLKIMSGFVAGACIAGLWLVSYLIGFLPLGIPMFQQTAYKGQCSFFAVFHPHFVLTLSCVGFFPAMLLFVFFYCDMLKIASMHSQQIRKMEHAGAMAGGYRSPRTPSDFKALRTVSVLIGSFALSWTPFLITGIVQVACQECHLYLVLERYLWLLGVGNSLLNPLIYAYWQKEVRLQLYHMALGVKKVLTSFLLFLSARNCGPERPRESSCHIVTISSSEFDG
- Assay: cAMP accumulation assay (cAMP Gs dynamic HTRF kit)
- Details: CHO-K1 cells stably expressing hGPR119; cAMP accumulation; 4-parameter fit

Solved entries:
Molecular String	EC50
O=C(Cc1ccc(OCCCC2CCN(c3ncc(Cl)cn3)CC2)cc1F)N1CC[C@@H](CNCC(CO)(CO)CO)C1	≤ 100 nM
O=C(Cc1ccc(OCCCC2CCN(c3ncc(Cl)cn3)CC2)cc1F)N1CC(CNCCOCCOCCO)C1	≤ 100 nM
CC1(CCCCOc2ccc(CC(=O)N3CC(CNC[C@H](O)[C@@H](O)[C@H](O)[C@H](O)CO)C3)c(F)c2)CCN(c2ncc(Cl)cn2)CC1	100 to 1000 nM

For O=C(Cc1ccc(OCCCC2CCN(c3ncc(Cl)cn3)CC2)cc1F)NCCS(=O)(=O)O , what is its reported EC50?
1000 to 10000 nM
